tested on: SNB-19 CNS; test: NCI tumour cell line growth inhibition, 48 h; in the data active means GI50 below about 0.43 µM; inactive means the rest
Please reply with one of these outcomes: active, inactive

# compound, classification
records = [
    ("COc1cc(-c2csc(NC(=O)Nc3ccc(Cl)cc3)n2)cc(OC)c1OC", "inactive"),
]

Each compound tested received a call. Report the one for COc1cccc2c1C(=O)c1c(O)c3c(c(O)c1C2=O)C[C@@](O)(/C(C)=N/NC(=O)c1cccc([N+](=O)[O-])c1)C[C@@H]3OC1CC(N)C(O)C(C)O1 (some centres not stated) . active

Outcome? Cc1cc[c]([Sb]2[O]C(CO)C(C(O)C(O)C(=O)O)[O]2)cc1 (configuration not stated) inactive

Lab log entry: "C=C(C)[C@@H]1CC[C@]2(C(=O)OC)CC[C@]3(C)[C@H](CC[C@@H]4[C@@](C)(CCc5nn[nH]n5)[C@H](C(=C)C)CC[C@]43C)[C@@H]12" — outcome as called in the assay? inactive

====

tested on: HOP-62 NSCLC; assay: NCI tumour cell line growth inhibition, 48 h
attributeMeasured: TGI

Observe how each entry below is paired with its result.
# molecule, assayedTarget, recordedResult
records = [
    ("O=C1O/C(=C(\\Br)c2ccc([N+](=O)[O-])cc2)c2ccccc21", "HOP-62 NSCLC", "> 100 µM"),
    ("OC1C2CN3CCN(C2)CC1(c1ccccc1)C3 (centres undefined)", "HOP-62 NSCLC", "> 100 µM"),
    ("COc1ccc(Nc2nc3ccccc3nc2-c2cccs2)cc1OC", "HOP-62 NSCLC", "> 10 µM"),
    ("O=c1cc(-c2cccc(Cl)c2)[nH]c2cc3c(cc12)OCO3", "HOP-62 NSCLC", "2.85 µM"),
    ("CN1CCN(c2ccc3nc(-c4[nH]ncc4Nc4ncnc5[nH]ccc45)[nH]c3c2)CC1", "HOP-62 NSCLC", "4.06 µM"),
]

Identify measured TGI associated with "CCN(CC)P(=O)(c1ccc2c(c1)OCCOCCOCCOCCO2)N(CC)CC" > 100 µM

Tell me measured TGI for "Cc1cnoc1/N=C1\C=C(Nc2oncc2C)C(=O)c2ccccc21" please. > 100 µM

Let me know recorded TGI for "[O-]c1ccccc1C=NCCN=Cc1ccccc1[O-].[O]=[U+2]=[O]" , thanks. > 67 µM

Report TGI, nothing else, for this molecule: "O=C(Nc1ccc(Cl)cc1)c1cc(S(=O)(=O)Nc2nc3ncccc3[nH]2)c(SSc2cc(Cl)c(C(=O)Nc3ccc(Cl)cc3)cc2S(=O)(=O)Nc2nc3ncccc3[nH]2)cc1Cl" > 100 µM

Give the reported TGI for this molecule. COc1ccc(C(O)C(c2ccc(OCc3ccccc3)cc2)c2ccc(OCc3ccccc3)cc2)cc1 (centres undefined) > 100 µM

====

Listed compounds paired with reported TGI
test system: NCI-H23 lung; experiment: NCI tumour cell line growth inhibition, 48 h
Where a SMILES comes first, the peptide text is derived from it. [ ]: non-standard residue; d: D form. ξ: configuration not given here. Pentanoyl(2-O,4-OH,5-Cl) = O=C(O)C(O)CC(O)CCl; Ile(3ξ) = CCC(C)[C@H](N)C(=O)O; NMeV = CN[C@H](C(=O)O)C(C)C; NMeA = CN[C@@H](C)C(=O)O; βAla = NCCC(=O)O

# compound, assayedTarget, TGI
rows = [
    ("CCC(C)[C@@H]1NC(=O)[C@@H]2CCCN2C(=O)C(CC(O)CCl)OC(=O)CCNC(=O)[C@H](C)N(C)C(=O)[C@H](C(C)C)N(C)C1=O (stereo partly specified) (cyclo([Ile(3ξ)][NMeV][NMeA][βAla][Pentanoyl(2-O,4-OH,5-Cl)]P))", "NCI-H23 lung", "> 100 µM"),
    ("CC(C)N1CCOC(c2ccc(O)c(O)c2)C1 (stereo unspecified)", "NCI-H23 lung", "> 100 µM"),
    ("O=C(Nc1ccccc1/C=C/c1n[nH]c2ccccc12)c1ccccc1", "NCI-H23 lung", "17.6 µM"),
]

Query TGI for "CC(C)(Sc1cc(C(C)(C)C)c(O)c(C(C)(C)C)c1)Sc1cc(C(C)(C)C)c(O)c(C(C)(C)C)c1" > 100 µM

Identify measured TGI associated with "CCCN1CCC(Oc2cc(Nc3nc(Nc4cccc(F)c4C(N)=O)c4cc[nH]c4n3)c(OC)cc2Cl)CC1" 8.26 µM

Complete the entry with TGI for "CC(C)(C)CNCCO" > 100 µM

Indicate the recorded TGI value for this compound: "CCO/C(O)=c1/s/c(=C2/SC(=S)N(c3ccc(C)cc3)C2=O)n(-c2ccccc2)c1=N" > 100 µM

Specify reported TGI for the compound shown: "O=C(CN1CCCCC1)c1ccc2[nH]c(=O)oc2c1" > 100 µM

Note TGI for the compound shown: "O=C(O)c1c2c(c(O)c3c1CN(C1CCCCC1)CO3)OCN(C1CCCCC1)C2" > 100 µM

Kindly indicate its recorded TGI. Item: "CN(C)CCNc1c(O)c2c(c(O)c1Cl)C(=O)C=CC2=O" 4.25 µM

Recall and state the measured TGI for CC1OC1C(=O)P(=O)(O)O (stereo unspecified) . > 100 µM

====

Quick reference for TGI among some compounds
system: CAKI-1 renal; assay: NCI tumour cell line growth inhibition, 48 h

In the examples that follow, each entry is paired with its recorded TGI.
# compound, TGI
rows = [
    ("O=c1[nH]nc(-c2ccc3ccccc3c2)[nH]1", "> 100 µM"),
    ("COc1ccc(C2c3cc4c(cc3OC(N3CCOCC3)C2C)OCO4)cc1OC (stereo unspecified)", "26.4 µM"),
    ("COc1cc2ncnc(Nc3cccc(Br)c3)c2cc1OC", "> 52.1 µM"),
    ("O=c1[nH]c(=O)n(Cc2ccc(C34CC5CC(CC(C5)C3)C4)c(O)c2)cc1F", "37.5 µM"),
    ("CC(C)(C)c1ccc(O)c(C(O)c2ccccn2)c1 (stereo unspecified)", "> 100 µM"),
    ("Cc1cccc(-c2nc(=S)[nH][nH]2)c1", "> 100 µM"),
    ("COc1ccc(C(O)C(c2ccc(OCc3ccccc3)cc2)c2ccc(OCc3ccccc3)cc2)cc1 (stereo unspecified)", "> 100 µM"),
    ("Cc1cccc(C)c1NC(=S)N/C=C(\\C#N)C(N)=O", "> 100 µM"),
]

Answer with the recorded TGI for the compound listed here: "CC(C)OC(=O)Nc1c([N+](=O)[O-])cc(C(F)(F)F)cc1[N+](=O)[O-]" > 100 µM

Please indicate TGI recorded for "CCOC(=O)Cn1nnc2ccc(Nc3nc4ccccc4nc3C(=O)OCC)cc21" > 100 µM

For the compound CCCCCCCCCCCCCOCCOCCOCCCCC(O)CCCCCCCCCC1=C[C@H](C)OC1=O (stereo partly specified) , report TGI. 44.4 µM

====

system: RPMI-8226 leukemia; assay: NCI tumour cell line growth inhibition, 48 h
Overview of reported TGI across a group of compounds:

# compound, TGI
records = [
    ("CN1CCN(c2ccc3nc(-c4[nH]ncc4Nc4ncnc5[nH]ccc45)[nH]c3c2)CC1", "19.3 µM"),
    ("COc1ccc(Nc2nc3ccccc3nc2-c2cccs2)cc1OC", "> 10 µM"),
    ("OC1CCN2Cc3ccccc3N=C12 (stereo unspecified)", "> 100 µM"),
]

Using the record for "COc1cc2c(cc1OCCCCCOc1ccc(-c3nc4ccccc4s3)cc1)N=C[C@@H]1CCCN1C2=O" , state its measured TGI. 4.14 µM

Could you please provide reported TGI for "O=C(Nc1ccccc1/C=C/c1n[nH]c2ccccc12)c1ccccc1" ? Thanks! 12.8 µM

Identify measured TGI associated with "C#CCOC(=O)C=[N+]=[N-]" > 10 µM

Entry "C[N+](C)(N)Cc1nc(-c2ccc(Cl)cc2)no1" needs its TGI filled in; supply it. > 100 µM

Please supply the value of reported TGI for the item "Cc1cc(C)c2c(-c3ccccc3)cc(=O)[nH]c2c1" > 100 µM

Look up and state reported TGI for O=C1C2C3SC(c4cc5ccccc5cc43)C2C(=O)N1c1ccccc1 (stereo unspecified) > 100 µM

Please indicate TGI recorded for "O=C1O/C(=C(\Br)c2ccc([N+](=O)[O-])cc2)c2ccccc21" > 61.8 µM

Give the measured TGI for "CCCCOc1ccc(/C=C/C2=[N+](CCO)CCO2)cc1" 74.7 µM

====

Entries and their TGI
tested on: BT-549 breast; experiment: NCI tumour cell line growth inhibition, 48 h
Respond with the bare value in µM.

# molecularString, TGI / µM
records = [
    ("O=C(c1ccccc1)c1nc2ccc(Cl)cc2cc1C(Br)Br", 1.12),
]

Please indicate TGI recorded for "CCn1c(-c2nonc2N)nc2cnc(Oc3cccc(NC(=O)c4ccc(OCCN5CCOCC5)cc4)c3)cc21" 15.3
